- Tested on: NCI/ADR-RES ovarian
- experiment: NCI tumour cell line growth inhibition, 48 h; in the data active means GI50 below about 0.43 µM; inactive means the rest
Parameter call: string, one of True = active, False = inactive

molecule: CNC(=O)c1cc(Oc2ccc(NC(=O)Nc3ccc(Cl)c(OC(F)(F)F)c3)c(F)c2)ccn1
assayedTarget: NCI/ADR-RES ovarian
classAssignment: False
--
molecule: CN1CCN(Cc2ccc(NC(=O)c3ccc(C(C)(C)C)c(C#Cc4cnc5cccnn45)c3)cc2C(F)(F)F)CC1
assayedTarget: NCI/ADR-RES ovarian
classAssignment: False
--
molecule: COc1ccc2c(c1)C=CC(C#N)N2C(=O)c1ccccc1 (stereo not given)
assayedTarget: NCI/ADR-RES ovarian
classAssignment: True
--
molecule: NC(N)=N/N=C/c1c(-c2ccccn2)nc2sc(Cl)cn12
assayedTarget: NCI/ADR-RES ovarian
classAssignment: False

// outcome(item) with item = C=CCOc1c(Br)cc(Br)cc1Br
False

Recorded call for COc1ccc(C2C(C#N)=C(N)OC3=C2CCCc2ccc(F)cc23)cc1OC (stereo not given) ?
False

====

- Test system: OVCAR-8 ovarian
- experiment: NCI tumour cell line growth inhibition, 48 h
reportedProperty: TGI

molecule: CC1CCCC(C(=O)/C(=C/c2cccc(Cl)c2)C(=O)C(=O)O)C1 (stereo not given)
TGI: 40 µM
--
molecule: O=c1c(Cc2ccccc2)c(-c2ccccc2)[nH]n1C1=NCCN1
TGI: > 100 µM
--
molecule: C=C1C(=O)O[C@H]2[C@H]1CC/C(COC(=O)c1cc3cc(OC)ccc3[nH]1)=C\CC[C@@]1(C)O[C@@H]21
TGI: 3.37 µM
--
molecule: O=[N+]([O-])c1ccc2nc3c(nc2c1)-c1c2ccccc2cc2cccc-3c12
TGI: > 30.6 µM
--
molecule: Brc1ccc2c(c1)-c1nc3c(cc1CC2)CCc1ccc(Br)cc1-3
TGI: > 100 µM

Now consider a different molecule.
# TGI lookup, item N#Cc1c(-c2ccccc2)nc2c(c(-c3ccccc3)nn2-c2ccccc2)c1-c1ccc(O)cc1
11.7 µM

====

- System: RXF 393 renal
- experiment: NCI tumour cell line growth inhibition, 48 h
Catalogue of TGI readings, one per entry.

molecule: C[C@@H]1C(=O)CC2(O)[C@@]13C[C@@H](OC(=O)[C@@H]3O)[C@@H](C)[C@@]21COC1=O (some centres undefined)
assayedTarget: RXF 393 renal
TGI: > 100 µM

molecule: COc1cc(/C=C\c2ccc(O)cc2)cc(OC)c1OC
assayedTarget: RXF 393 renal
TGI: > 25.1 µM

molecule: CS(=O)(=O)Nc1ccc(-c2ccc3c(NC(=O)C4CC4)n[nH]c3c2)cc1
assayedTarget: RXF 393 renal
TGI: > 25 µM

Returns the measured TGI for the input molecule. Input: COC(=O)C(CCSC)NC(=O)CSc1nnc(COc2ccc(Cl)cc2)n1-c1ccccc1 (centres undefined)
35.4 µM

====

- Tested on: CAKI-1 renal
- experiment: NCI tumour cell line growth inhibition, 48 h
reportedProperty: TGI

// solved cases for TGI follow
compound: FC(F)=C(c1ccc(-c2ccc(Cl)cc2)cc1)C(F)(F)F
assayedTarget: CAKI-1 renal
TGI: 46.3 µM
//
compound: O=C1N[C@@H](O)[C@@H]2ON=C(c3ccccc3)[C@H]12
assayedTarget: CAKI-1 renal
TGI: > 100 µM
//
compound: CCN(C(=O)N[C@H](C(=O)N[C@@H](C)C(=O)OC)C(C)C)c1ccccc1
assayedTarget: CAKI-1 renal
TGI: > 100 µM
//
compound: N#CC(C#N)=Cc1cccc(Oc2ccccc2)c1
assayedTarget: CAKI-1 renal
TGI: 50.4 µM
//
compound: COc1ccc(C2C(N)=NCC2c2ccccn2)cc1 (stereo unspecified)
assayedTarget: CAKI-1 renal
TGI: > 100 µM

For the compound Cc1ncc([N+](=O)[O-])n1CCNC(=O)CCCCn1ccnc1[N+](=O)[O-] , what TGI is on record?
> 100 µM

Which measured TGI value corresponds to CCCCCC(C(O)C#N)C(O)(C(F)(F)F)C(F)(F)F (stereo unspecified) ?
> 10 µM

Which TGI is reported for this compound? COc1ccc2c(c1)C=CC(C#N)N2C(=O)c1ccccc1 (stereo unspecified)
> 100 µM

Name the reported TGI value associated with the compound COc1ccc2c(-c3cc4ccccc4o3)cc(=O)oc2c1
> 87.4 µM
